Species on record: Rattus norvegicus
Assay: Open TG-GATES - Regimen: Daily Repeat
Type: toxicity, organism-based, Sprague-Dawley
Parameters: regimen Daily Repeat, gender Male, age 6 weeks
Conditions: in vivo, po, 0 mg/kg, […], tissue Plasma, route gavage, dose level Control, time 7 day
Hi all, reminder that labels come from TC, split as lowest (below 70 mg/dL), middle (70 mg/dL to below 80 mg/dL), highest (80 mg/dL or more)

Some entries whose results are on file:
CCc1cc(C(N)=S)ccn1 [ETHIONAMIDE] : middle
C[C@H](CS)C(=O)N1CCC[C@H]1C(=O)O : lowest
CO[C@H]1/C=C/O[C@@]2(C)Oc3c(C)c(O)c4c(O)c(c(/C=N/N5CCN(C)CC5)c(O)c4c3C2=O)NC(=O)/C(C)=C\C=C\[C@H](C)[C@H](O)[C@@H](C)[C@@H](O)[C@@H](C)[C@H](OC(C)=O)[C@@H]1C : middle
NC(=O)N/N=C/c1ccc([N+](=O)[O-])o1 : middle
COc1ccc(Cc2nccc3cc(OC)c(OC)cc23)cc1OC : middle

Please report the category associated with O=C(O)c1cn(C2CC2)c2cc(N3CCNCC3)c(F)cc2c1=O , nothing else.
highest

Another: CC(=O)Oc1ccccc1C(=O)O
lowest

Another: CSc1ccc2c(c1)N(CCC1CCCCN1C)c1ccccc1S2 (centres undefined)
highest
